Sourced from patent US12239640B2

tested on: T-type calcium channel; assay: T-type calcium channel current in acutely dissociated primary rat trigeminal ganglion neurons; assay type: cell-based; details: dose-effect curve
READOUT: pIC50
Answers are plain numbers, as −log10 of the molar value.

query: Provide one value: measured pIC50 of COn1cc(C(=O)O)c(=O)c2cc3c(cc21)OCO3 [miloxacin]
result: 5.11

---

target: T-type calcium channel subtype Cav3.1 (Homo sapiens); test: Whole-cell voltage clamp of Cav3.1 current in transfected HEK293 cells; conditions: dose-effect curve
Sequence (O43497 1-2171 isoform O43497-5): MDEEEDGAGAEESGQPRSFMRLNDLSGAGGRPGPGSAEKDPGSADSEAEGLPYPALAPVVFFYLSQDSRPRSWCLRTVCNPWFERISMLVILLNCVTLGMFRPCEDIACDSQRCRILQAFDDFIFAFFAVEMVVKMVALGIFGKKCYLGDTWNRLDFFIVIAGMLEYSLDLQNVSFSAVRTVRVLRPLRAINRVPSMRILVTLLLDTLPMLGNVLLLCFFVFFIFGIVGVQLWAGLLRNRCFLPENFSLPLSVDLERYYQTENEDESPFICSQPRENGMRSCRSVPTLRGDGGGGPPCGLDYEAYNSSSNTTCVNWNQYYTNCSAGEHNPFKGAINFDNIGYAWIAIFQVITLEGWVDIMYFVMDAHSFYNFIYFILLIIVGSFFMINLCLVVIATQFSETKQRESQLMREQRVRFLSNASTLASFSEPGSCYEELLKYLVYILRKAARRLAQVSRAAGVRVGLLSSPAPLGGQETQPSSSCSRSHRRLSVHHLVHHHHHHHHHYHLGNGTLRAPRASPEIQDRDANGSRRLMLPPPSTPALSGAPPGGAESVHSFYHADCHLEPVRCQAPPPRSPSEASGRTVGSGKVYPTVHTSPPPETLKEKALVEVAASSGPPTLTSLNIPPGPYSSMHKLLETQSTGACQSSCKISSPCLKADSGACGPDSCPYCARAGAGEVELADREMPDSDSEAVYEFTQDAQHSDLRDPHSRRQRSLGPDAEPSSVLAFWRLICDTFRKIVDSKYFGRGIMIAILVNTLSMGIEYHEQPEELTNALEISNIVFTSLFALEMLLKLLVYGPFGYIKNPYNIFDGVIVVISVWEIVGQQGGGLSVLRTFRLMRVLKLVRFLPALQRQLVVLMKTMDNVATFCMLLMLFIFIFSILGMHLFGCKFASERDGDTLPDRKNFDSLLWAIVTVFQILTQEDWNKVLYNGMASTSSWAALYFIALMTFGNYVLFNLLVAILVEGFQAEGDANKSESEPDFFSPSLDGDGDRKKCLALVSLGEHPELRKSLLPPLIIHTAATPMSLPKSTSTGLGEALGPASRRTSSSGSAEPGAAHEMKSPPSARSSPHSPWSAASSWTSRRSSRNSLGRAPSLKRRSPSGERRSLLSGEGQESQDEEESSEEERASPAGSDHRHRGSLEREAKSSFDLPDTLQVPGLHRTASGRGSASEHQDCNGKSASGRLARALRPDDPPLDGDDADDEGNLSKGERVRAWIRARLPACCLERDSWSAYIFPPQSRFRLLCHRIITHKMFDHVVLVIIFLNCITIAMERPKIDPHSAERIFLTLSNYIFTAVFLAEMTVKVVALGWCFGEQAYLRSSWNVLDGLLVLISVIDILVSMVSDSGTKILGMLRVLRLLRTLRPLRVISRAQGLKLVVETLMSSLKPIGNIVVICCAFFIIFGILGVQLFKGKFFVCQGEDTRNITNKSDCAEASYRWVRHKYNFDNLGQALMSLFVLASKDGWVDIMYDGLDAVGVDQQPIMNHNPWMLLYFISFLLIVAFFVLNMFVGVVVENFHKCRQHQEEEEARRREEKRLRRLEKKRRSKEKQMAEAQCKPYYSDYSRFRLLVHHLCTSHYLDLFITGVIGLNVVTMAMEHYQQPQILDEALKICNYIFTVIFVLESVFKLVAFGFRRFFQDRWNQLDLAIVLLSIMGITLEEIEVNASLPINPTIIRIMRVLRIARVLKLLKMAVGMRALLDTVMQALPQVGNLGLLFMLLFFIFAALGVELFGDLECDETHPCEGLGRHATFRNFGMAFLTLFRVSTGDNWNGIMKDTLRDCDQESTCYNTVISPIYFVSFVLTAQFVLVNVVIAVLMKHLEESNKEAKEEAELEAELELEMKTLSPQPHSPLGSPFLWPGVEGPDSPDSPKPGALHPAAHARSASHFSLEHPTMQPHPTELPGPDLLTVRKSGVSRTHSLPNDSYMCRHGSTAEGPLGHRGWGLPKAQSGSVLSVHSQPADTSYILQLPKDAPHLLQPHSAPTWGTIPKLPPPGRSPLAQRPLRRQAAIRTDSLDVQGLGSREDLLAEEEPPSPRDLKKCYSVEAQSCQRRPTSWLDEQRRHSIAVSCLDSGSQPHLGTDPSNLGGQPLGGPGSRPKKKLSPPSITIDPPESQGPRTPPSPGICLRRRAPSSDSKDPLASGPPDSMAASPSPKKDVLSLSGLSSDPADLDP
READOUT: pIC50
One number for each entry, as −log10 of the molar value.

query: Provide one value: measured pIC50 of COn1cc(C(=O)O)c(=O)c2cc3c(cc21)OCO3
result: 5.19
